- target-or-system: Ubiquitin-activating enzyme e1, putative (Leishmania donovani (strain BPK282A1)) (UniProt E9BSI1)
- Sequence (E9BSI1 as listed by the source): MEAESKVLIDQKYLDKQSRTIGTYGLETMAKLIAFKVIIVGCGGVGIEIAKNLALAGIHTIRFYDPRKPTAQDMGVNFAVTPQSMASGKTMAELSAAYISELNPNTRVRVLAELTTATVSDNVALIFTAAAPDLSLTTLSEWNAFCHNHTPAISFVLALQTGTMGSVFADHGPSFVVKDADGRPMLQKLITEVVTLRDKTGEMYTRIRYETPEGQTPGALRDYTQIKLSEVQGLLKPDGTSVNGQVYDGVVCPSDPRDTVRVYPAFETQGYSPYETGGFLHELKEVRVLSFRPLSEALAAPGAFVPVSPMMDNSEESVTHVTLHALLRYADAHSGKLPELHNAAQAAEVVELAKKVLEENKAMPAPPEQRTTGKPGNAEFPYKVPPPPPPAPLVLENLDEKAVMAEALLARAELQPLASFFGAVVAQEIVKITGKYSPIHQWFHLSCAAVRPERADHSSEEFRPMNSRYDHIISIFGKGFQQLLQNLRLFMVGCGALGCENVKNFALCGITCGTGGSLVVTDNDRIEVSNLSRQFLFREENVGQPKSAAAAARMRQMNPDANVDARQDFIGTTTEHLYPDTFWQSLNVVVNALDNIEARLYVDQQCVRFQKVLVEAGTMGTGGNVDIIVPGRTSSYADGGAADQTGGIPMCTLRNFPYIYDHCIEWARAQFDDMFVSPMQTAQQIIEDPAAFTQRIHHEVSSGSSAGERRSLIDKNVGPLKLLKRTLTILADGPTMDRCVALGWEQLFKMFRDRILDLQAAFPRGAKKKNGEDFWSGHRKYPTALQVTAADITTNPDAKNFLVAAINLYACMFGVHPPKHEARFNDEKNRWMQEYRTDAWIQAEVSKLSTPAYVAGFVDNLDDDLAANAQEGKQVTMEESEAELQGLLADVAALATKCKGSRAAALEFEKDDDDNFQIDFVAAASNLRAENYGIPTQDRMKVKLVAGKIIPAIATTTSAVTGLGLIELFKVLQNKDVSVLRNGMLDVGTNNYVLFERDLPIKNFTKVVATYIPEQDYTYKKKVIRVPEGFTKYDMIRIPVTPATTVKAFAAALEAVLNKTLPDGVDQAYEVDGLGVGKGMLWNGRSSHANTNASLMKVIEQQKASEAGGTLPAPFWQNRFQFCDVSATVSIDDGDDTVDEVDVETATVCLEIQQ
- protocol-details: Leishmania donovani Ubiquitin Activating Enzyme (LdE1)
- Assay type: functional
- Parameters: scale not given: direction of the effect not stated beside the values
- condition-details: 30 µM
Measured potencies and affinities stand elsewhere.
value-type: Percent Effect

>>> result("CCNC(=O)NC(=O)CNC1(c2noc(C)n2)CCCCC1")
"15.8%"
>>> result("CC(C)NC(=O)[C@H]1C[C@@H]2[C@@H](C1)OCCN2Cc1cccnc1")
"-5.33%"
>>> result("Cc1ccc(N2CCO[C@H]3CN(Cc4ccncc4)C[C@H]32)nn1")
"2.7%"
>>> result("COc1cc(CNCC(O)c2ccc(F)c(F)c2)cc2c1OCO2 (stereo unspecified)")
"13.5%"
>>> result("CC(C)N1CCOCC2(CN(Cc3ccccn3)CCO2)C1 (stereo unspecified)")
"10.4%"
>>> result("CC(C)c1nc(N2CCN3CCCC3C2)c2cnn(C)c2n1 (stereo unspecified)")
"8.22%"
>>> result("CN(C)c1ncc2c(n1)C1(CCN(CC3CC3)C1)COC2 (stereo unspecified)")
"0%"
>>> result("Cc1ccc(CC(=O)N2CCN(CC(O)c3ccccc3)CC2)cn1 (stereo unspecified)")
"5.26%"
>>> result("COCc1cncc2c1CCN(Cc1ccccn1)C2")
"5.41%"
>>> result("CCS(=O)(=O)N[C@@H]1CN(Cc2cc(C)on2)C[C@@H]2CCCO[C@@H]21")
"8.11%"
>>> result("c1cnc(N2CCC3(COCCN(CC4CC4)C3)C2)nc1 (stereo unspecified)")
"3.9%"
